# assay target: PDGFR-β (Homo sapiens)
# Construct: host or cells: NIH 3T3
# Sequence (P09619 33-1106): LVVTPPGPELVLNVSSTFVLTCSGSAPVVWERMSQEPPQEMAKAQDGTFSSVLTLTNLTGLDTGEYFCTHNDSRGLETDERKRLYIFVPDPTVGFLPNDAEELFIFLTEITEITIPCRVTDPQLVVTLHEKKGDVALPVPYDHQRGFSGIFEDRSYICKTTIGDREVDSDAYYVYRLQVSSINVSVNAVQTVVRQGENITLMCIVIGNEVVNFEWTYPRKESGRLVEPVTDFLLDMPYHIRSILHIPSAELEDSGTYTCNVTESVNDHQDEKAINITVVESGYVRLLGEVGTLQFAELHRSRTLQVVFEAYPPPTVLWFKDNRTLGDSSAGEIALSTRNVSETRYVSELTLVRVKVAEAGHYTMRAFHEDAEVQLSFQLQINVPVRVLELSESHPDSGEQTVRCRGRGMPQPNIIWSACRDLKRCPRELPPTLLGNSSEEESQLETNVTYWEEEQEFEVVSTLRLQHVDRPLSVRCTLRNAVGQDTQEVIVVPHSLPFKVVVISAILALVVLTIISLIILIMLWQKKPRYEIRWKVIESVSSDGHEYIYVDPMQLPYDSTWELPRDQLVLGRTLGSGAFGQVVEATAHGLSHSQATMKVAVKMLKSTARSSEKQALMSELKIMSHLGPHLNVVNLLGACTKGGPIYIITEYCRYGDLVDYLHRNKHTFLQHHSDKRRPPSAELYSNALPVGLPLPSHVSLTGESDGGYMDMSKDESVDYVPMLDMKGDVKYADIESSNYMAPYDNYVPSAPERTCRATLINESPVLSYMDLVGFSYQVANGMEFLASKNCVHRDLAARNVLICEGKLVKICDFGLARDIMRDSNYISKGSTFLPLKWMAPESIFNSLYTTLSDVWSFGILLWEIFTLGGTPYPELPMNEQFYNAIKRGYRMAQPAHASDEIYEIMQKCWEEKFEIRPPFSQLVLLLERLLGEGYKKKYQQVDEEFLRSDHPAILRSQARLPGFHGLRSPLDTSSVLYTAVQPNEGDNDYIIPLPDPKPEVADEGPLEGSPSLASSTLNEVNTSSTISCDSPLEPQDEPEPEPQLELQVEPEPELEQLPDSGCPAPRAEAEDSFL
# experimental protocol: Biochemical PDGFR assay (ELISA, PDGFR-β expressing NIH 3T3 cell lysate)
# assay setup: read-out: bio PDGF IC50
pIC50: −log10 of the molar value.
measurement label: pIC50

COc1ccc2c(c1)/C(=C/c1[nH]cc(C)c1CCC(=O)O)C(=O)N2	5.43

A = CCOC(=O)c1c(C)[nH]c(/C=C2\C(=O)Nc3ccc(C(=O)O)cc32)c1CCCN1CCCC1
B = O=C(O)CCc1c(/C=C2\C(=O)Nc3ncccc32)[nH]c2c1CCCC2
C = CCOC(=O)c1c(C)[nH]c(/C=C2\C(=O)Nc3ccc(C(=O)O)cc32)c1CCCN(C)C
Query: With regard to pIC50, arrange the entries in ascending order, please. Give the order by naming the labels one after another as requested.
Reply: A, C, B
